Entries annotated with measured self-cleavage
B1: CPEB3 Ribozyme (parent)
chain: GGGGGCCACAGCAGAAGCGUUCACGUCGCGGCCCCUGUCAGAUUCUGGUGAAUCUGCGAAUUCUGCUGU

- Variants of: B1
- test-details: self-cleavage, relative activity (ratio to wild type); higher = more cleavage; co-transcriptional
readout-label: self-cleavage

[[record]]
mutation = "U20C G30U"
readout_label = "self-cleavage"
value_measured = 0.153

[[record]]
mutation = "C6U U53G"
readout_label = "self-cleavage"
value_measured = 0.719

[[record]]
mutation = "G3C C27U"
readout_label = "self-cleavage"
value_measured = 0.0443


Source of measurements: the RNAGym collection of RNA variant scans (doi:10.7554/elife.80360)
